- method.description: yeast display, Sf9 membrane polyspecificity reagent, FACS + sequencing; frameworks hold sequencing errors
observation.type: polyreactivity (PSR sort gate)

| sequence.chain | polyreactivity (PSR sort gate) |
| --- | --- |
| QVQLVESGGGLVQAGGSLRLSCAASGITFISYVMGWYRQAPWKERELLAAISKRGGSTYYADSVKGRFTISRDNAKNTVYLQMNSLKPEDTAVYYCAAKTIPWSVGYDYWGQGTQVTVSS | high polyreactivity |
| QVQLVESGGGLVQAGGSLRLSCAASGRIFLINALGCYRQAPGKERELVAAIRTGGNTYYADSVKGRFTISRDNAKNTVYLQMNSLKPEDTAVYSCAADRIYPYYRWSGAHRSDVDYWGQGTQVTVSS | low polyreactivity |
| QVQLVESGGGLVQAGGSLRLSCAASGSILESNVMGWYRQAPGKERELVASISSSGDSTYADSVKGRFTISRDNAKNTVYLQMNRLKPEDTAVYYCASDRLYWTYALYYWGQGTQVNVSS | low polyreactivity |
| QVQLVESGGGLVQAGGSLRLSCAASGFTFTRNAMGWYRQAPGKERELVAAISSSAGSTSYADSVKGRFTISRDNAKNPVYLQMNRLKPEDTAVYYCATEGSYYSWVGKVGYRYQYHYWGQGTQVTVSS | high polyreactivity |
| QVQLVESGGGLVQAGGSLRLSCAASGITFSAYAMGWYRQAPGKERELVARISTDADTYYADSVKGRFTISRDNAKNTVYLQMNSLKPEDTAVYYCNADWSWYNYYDFDYWGQGTQVTVSS | low polyreactivity |
| QVQLVESGGGLVQAGGSLRLSCAASGRIFDRYAMGWYRQAPGKERELVAVITGGTGNTYYADSVKGRFTISRDNAKNTVYLQMNSLKPEDTAVYYCNARGGYYKFRYPLYYWGQGTQVTVSS | high polyreactivity |
| QVQLVESGGGLVQAGGSLRLSCAASGSTFIGYAMGWYRQAPGKERELVASISWGGGSTYYADSVKGRFTISRDNAKNTVYLQMNSLKPEDTAVYYCATDGRTYIDFYWGQGTQVTVSS | low polyreactivity |
| QDQLVESGGGLVQAGGSLRLSCAASGFTFYRNAMGWYRQAPGKERELVAAISRGGRTYYADSVKGRFTISRDNAKNTVYLQMNSLNPEDTAVYYCAVGYSGYVSSMDYWGQGTQVTVSS | high polyreactivity |
| QVQLVESGGGLVQAGGSLRLSCAASGRTLENYAMGWSRQAPGKERELVATINGRSGNTYYADSVKGRFTLSRDNAKNTVYLQMNSLKPEDTAVYYCNAYYEGYYTVGYDYWGQGTQVTVSS | high polyreactivity |
| QVQLVESGGGLVQAGGSLRLTCAASGRISRYYAMGWYRQAPGKERELVATITFSGGSTYYADSVKGRFTISRDNAKNTVYLQMNSLKPEDTAVYYCAKQRGGAYLVPWYGYWGQGTQVTVSS | high polyreactivity |

Would you kindly look at the next entry?
query: Any idea what polyreactivity (PSR sort gate) was measured for `QVQLVESGGGLVQAGGSLRLSCAASGSTFFHYAMGWYRQAPGKERELVAAISTGGTTYYADSVKGRFTISRDNAKNTVYLQMNSLKPEDSAVYYCAAEAYGLSGLYYYWGQCTQVTVSS` ?
result: high polyreactivity
